Biological target: UniProt:P06241
Sequence (P06241 whole entry): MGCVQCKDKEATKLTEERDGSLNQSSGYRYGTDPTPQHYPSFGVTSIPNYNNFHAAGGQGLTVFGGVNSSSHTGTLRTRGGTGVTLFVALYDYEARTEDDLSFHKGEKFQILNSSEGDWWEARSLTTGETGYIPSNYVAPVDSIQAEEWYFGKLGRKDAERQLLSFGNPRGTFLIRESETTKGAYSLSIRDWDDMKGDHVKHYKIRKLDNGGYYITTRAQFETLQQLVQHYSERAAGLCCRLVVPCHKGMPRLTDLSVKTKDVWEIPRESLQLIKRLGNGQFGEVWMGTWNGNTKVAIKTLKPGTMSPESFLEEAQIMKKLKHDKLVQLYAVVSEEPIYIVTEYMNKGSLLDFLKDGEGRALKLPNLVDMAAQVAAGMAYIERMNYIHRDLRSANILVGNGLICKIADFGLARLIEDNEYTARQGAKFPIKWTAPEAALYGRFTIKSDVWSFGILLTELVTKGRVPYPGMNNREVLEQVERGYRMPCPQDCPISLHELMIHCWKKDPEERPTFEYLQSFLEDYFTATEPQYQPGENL
Assay: biochemical
Format: cell-based, Insect cells
Conditions: read-out: IC50
outcome-measure: pIC50
Remember, pIC50 is on a log scale: it is -log10 of the molar concentration.

The compound identified as O=c1cc(-c2ccccc2)oc2ccc3ccccc3c12 [BETA-NAPHTHOFLAVONE] registered its pIC50 at 5.60

According to the records, this compound Oc1ccccc1O [CATECHOL] displays pIC50 of 4.76

Note to self: pIC50 recorded for OCCN1CCN(CCCN2c3ccccc3Sc3ccc(C(F)(F)F)cc32)CC1 [FLUPHENAZINE] was 5.10

compound C[C@@H]1C[C@H]2[C@@H]3CCC4=CC(=O)C=C[C@]4(C)C3=CC[C@]2(C)[C@H]1C(=O)CN1CCN(c2cc(N3CCCC3)nc(N3CCCC3)n2)CC1 [TIRILAZAD] , pIC50 observed: 5.95

Form: compound = O=C(/C=C/c1ccc(O)c(O)c1)OCCc1ccccc1 [CAFFEIC ACID PHENETHYL ESTER] ; pIC50 = 5.38

For record CC(CCc1ccc(O)cc1)NCCc1ccc(O)c(O)c1 (stereo unspecified) [DOBUTAMINE] the listed pIC50 is 5.40

----------
Test: DRUGMATRIX: beta-Lactamase enzyme inhibition (substrate: Nitrocefin)
Set-up: species or system Bacillus cereus
Settings: Not Active = under 50% inhibition at 10 µM
outcome-measure: IC50

Some compounds with known IC50 results, for comparison:
compound="NC(=O)N1c2ccccc2C=Cc2ccccc21 [CARBAMAZEPINE]" outcome_measure=IC50 assay_value="Not Active"
compound="Clc1cc2c(cc1Cl)Oc1cc(Cl)c(Cl)cc1O2 [2,3,7,8-TETRACHLORODIBENZO-P-DIOXIN]" outcome_measure=IC50 assay_value="Not Active"
compound="C=C(C)[C@H]1Cc2c(ccc3c2O[C@@H]2COc4cc(OC)c(OC)cc4[C@@H]2C3=O)O1 [ROTENONE]" outcome_measure=IC50 assay_value="Not Active"
compound="NC[C@@H]1O[C@H](O[C@H]2[C@@H](O)[C@H](O[C@@H]3[C@@H](O)[C@H](N)C[C@H](N)[C@H]3O[C@H]3O[C@H](CN)[C@@H](O)[C@H](O)[C@H]3N)O[C@@H]2CO)[C@H](N)[C@@H](O)[C@@H]1O [FRAMYCETIN]" outcome_measure=IC50 assay_value="Not Active"
compound="CCN[C@@H](C)Cc1cccc(C(F)(F)F)c1 [DEXFENFLURAMINE]" outcome_measure=IC50 assay_value="Not Active"
compound=CC[C@]1(O)CC[C@H]2[C@@H]3CCC4=CCCC[C@@H]4[C@H]3CC[C@@]21C outcome_measure=IC50 assay_value="Not Active"

Now examine the next entry.
The compound listed as O=C(O)c1cc(=O)c2c(OCC(O)COc3cccc4oc(C(=O)O)cc(=O)c34)cccc2o1 [CROMOLYN] shows IC50 equal to Not Active

----------
Test: DRUGMATRIX: Calcium Channel Type L, Phenylalkylamine radioligand binding (ligand: [3H] (-)-Desmethoxyverapamil (D-888))
Format: cell membranes, Rattus norvegicus, Wistar, Brain, Membrane
Details: Not Active = under 50% inhibition at 10 µM
outcome-measure: Ki

// known answers, use as guide
substance="POLYVINYL ALCOHOL" assay_value="Not Active"
substance="STANNOUS FLUORIDE" assay_value="Not Active"
substance="COBALT(II) ACETYLACETONATE" assay_value="Not Active"
substance=THIMEROSAL assay_value="Not Active"

Now let's try a different one.
Item: INSULIN HUMAN | Ki: Not Active
